target: Estrogen receptor (Homo sapiens) (UniProt P03372); assay: OT_ER_ERaERa_0480: Odyssey Thera (OT) 8-hour HEK293T Protein-Complementation Assay for Estrogen Receptor-alpha/-alpha Homodimer (AID 2283351);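 also: rise in fluorescence from reassembled reporter fragments on ERα LBD homodimer in nucleus or whole cell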
Sequence (P03372 whole entry, looked up, the tested form may be a part): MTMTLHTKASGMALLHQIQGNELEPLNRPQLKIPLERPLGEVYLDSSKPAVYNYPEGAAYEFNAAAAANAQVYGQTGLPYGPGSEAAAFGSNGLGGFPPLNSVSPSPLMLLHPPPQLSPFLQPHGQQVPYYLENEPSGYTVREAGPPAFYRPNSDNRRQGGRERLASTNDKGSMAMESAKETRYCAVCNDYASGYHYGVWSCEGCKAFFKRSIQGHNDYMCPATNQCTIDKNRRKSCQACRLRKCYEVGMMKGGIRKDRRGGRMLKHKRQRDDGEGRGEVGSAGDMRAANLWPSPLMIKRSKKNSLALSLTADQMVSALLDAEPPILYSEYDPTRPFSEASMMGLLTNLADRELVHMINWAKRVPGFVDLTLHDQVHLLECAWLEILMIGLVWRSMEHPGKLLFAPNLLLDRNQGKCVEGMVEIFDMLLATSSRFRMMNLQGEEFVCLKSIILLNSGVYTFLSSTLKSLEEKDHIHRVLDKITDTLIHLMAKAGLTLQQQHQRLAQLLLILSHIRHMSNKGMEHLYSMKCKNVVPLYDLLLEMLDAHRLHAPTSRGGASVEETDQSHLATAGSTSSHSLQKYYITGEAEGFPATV
Inconclusive results are not listed. Active and inactive are the calls of the source. The calls were made as follows: active = hit-call score of the fitted dose curve at least 0.9, where 1 is the maximum; inconclusive = response in the unintended direction; inactive = score below 0.9.
measurement-kind: outcome

Look over these answered cases.
CCCCOCCOCCOCCO
inactive
COC(=O)c1ccc(C(=O)OC)cc1
inactive
CC1=CCC(=C(C)C)CC1
inactive
C=CCCCCCCCCC(=O)OCC
inactive
O=C(O)CS
inactive

Req: Can you share its outcome? I mean this compound: `COc1ccc2[nH]cc(CCNC(C)=O)c2c1`
Resp: inactive

Req: Another: `[O-]/[N+](=N\O)c1ccccc1`
Resp: inactive

Req: Item: `CCCc1ccc(N)cc1`
Resp: inactive

---

assay: TOX21_p53_BLA_p5_viability: Viability Assessment in the Tox21 HCT-116 p53 Agonism Beta-lactamase Assay, Phase 5 (AID 2283600)
Records with an inconclusive call do not appear. The source made the active and inactive calls. How the source made its calls: active means hit-call score of the fitted dose curve at least 0.9, where 1 is the maximum; inconclusive means response in the unintended direction; inactive means score below 0.9.
Answer with one of the outcomes active, inactive

Reference set, count: 4
Cc1cc(O)c2c(c1)C(=O)c1cc(O)cc(O)c1C2=O
inactive
O=S1(=O)CC(Cl)(Cl)C(Cl)(Cl)C1
active
CCCCCCCCCCCCCC(=O)OCC
inactive
CCOc1ccc(NC(C)=O)cc1
inactive

Req: # outcome recorded in this test, key = `CCCCCCCCCCCCN1CCOCC1`
Resp: inactive

Req: Okay, and CCCCCCCC1CCCC1=O (stereo unspecified) ?
Resp: inactive

---

target: Luciferin 4-monooxygenase (Photinus pyralis) (UniProt P08659); test: CCTE_Simmons_QuantiLum_inhib_2: CCTE's Firefly Luciferase Inhibition Assay, Simmons Lab (AID 2283767);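 as to AC50: potency for inhibitors that lower luciferase luminescence relative to DMSO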
Sequence (P08659 whole entry, looked up): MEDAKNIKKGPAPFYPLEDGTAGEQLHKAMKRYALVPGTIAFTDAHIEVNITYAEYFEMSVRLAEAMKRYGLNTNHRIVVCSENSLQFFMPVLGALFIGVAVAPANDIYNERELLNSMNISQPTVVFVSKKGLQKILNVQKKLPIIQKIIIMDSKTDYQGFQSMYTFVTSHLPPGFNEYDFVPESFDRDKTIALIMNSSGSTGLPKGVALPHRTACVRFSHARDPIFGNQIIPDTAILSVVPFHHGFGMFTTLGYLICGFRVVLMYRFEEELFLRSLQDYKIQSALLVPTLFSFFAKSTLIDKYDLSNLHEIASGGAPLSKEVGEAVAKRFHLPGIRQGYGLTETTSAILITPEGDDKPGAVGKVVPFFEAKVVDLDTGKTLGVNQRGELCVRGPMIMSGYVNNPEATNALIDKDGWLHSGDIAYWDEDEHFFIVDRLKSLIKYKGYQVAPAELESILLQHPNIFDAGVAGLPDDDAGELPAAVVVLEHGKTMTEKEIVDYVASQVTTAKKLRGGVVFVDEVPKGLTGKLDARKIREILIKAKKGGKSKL
Records with an inconclusive call do not appear. Calls of active or inactive are those of the source. How the source made its calls: active means hit-call score of the fitted dose curve at least 0.9, where 1 is the maximum; inconclusive means response in the unintended direction; inactive means score below 0.9.
measurement-kind: AC50

Guide cases for AC50, answers given:
CN1CCc2cccc3c2[C@H]1Cc1ccc(O)c(O)c1-3
12.5 µM (active)
CCCCCCCCOC(=O)c1ccc(O)cc1
inactive
CCc1cccc(O)c1
55.2 µM (active)
CC(=O)OC/C=C(C)/C=C/C=C(C)/C=C/C1=C(C)CCCC1(C)C
inactive

Query compound follows.
Req: For the compound `[O-]/[N+](=N\O)c1ccccc1` , what AC50 is on record?
Resp: 31.7 µM (active)

---

experiment: ATG_TCF_b_cat_CIS: Attagene CIS-FACTORIAL HepG2 Assay for human T-Cell-Factor with beta-catenin (TCF/b-cat) (AID 2282965); conditions: HepG2 TCF/beta-catenin cis-reporter transcription, actives raise or lower the signal
Active and inactive are the calls of the source. Rule for the calls: active = hit-call score of the fitted dose curve at least 0.9, where 1 is the maximum; inactive = score below 0.9.
measurement-kind: outcome

CC(=O)CCC(=O)O
inactive
CC1=CCC(C(C)(C)O)CC1 (stereo not drawn)
inactive
CCCCOCCOC(=O)c1ccccc1C(=O)OCCOCCCC
inactive

---

experiment: ACEA_ER_80hr: ACEA Biosciences xCELLigence Real-Time Cell Analysis on Estrogen Receptor Agonism for Proliferation (AID 2282667); conditions: T47D proliferation, impedance (xCELLigence), 80 h
Inconclusive results are not listed. The source made the active and inactive calls. Rule for the calls: active = hit-call score of the fitted dose curve at least 0.9, where 1 is the maximum; inconclusive = response in the unintended direction; inactive = score below 0.9.
Assign a class; possible classes are Yes = active, No = inactive

Some entries whose results are on file:
FC(F)(F)c1ccc(Cl)c(Cl)c1
No
O=C(O)c1ccc(C(=O)O)c(C(=O)O)c1
No
C=C(C)C(N)=O
No

Req: Field: outcome | Entry: CCC(=O)OC(C)(C)C1CC=C(C)CC1 (configuration not stated)
Resp: No

Req: Query `Cc1cc(O)c(C)c(C)c1O` next
Resp: No

Req: Repeat with `CCCCCCCCCO`
Resp: No

Req: Try `CCCCCCCCCCCCOCCOS(=O)(=O)O` next.
Resp: Yes

Req: Query `O=C1CCC(=O)N1` next
Resp: No

Req: // repeat for `N#CCCNCCC#N` and report
Resp: Yes

Req: Can you handle CCC(C)(C)C1CCC(OC)CC1 (configuration not stated) next?
Resp: No

Req: Also check `CC(C)(O)C(=O)c1ccc(OCCO)cc1`
Resp: No

Req: How about this compound: CCCC(O)C(CC)CO (configuration not stated)
Resp: No

Req: Same question, `CC1=CC(=O)[C@H]2C[C@@H]1C2(C)C` this time
Resp: No

Req: Also `CC/C=C\CCCCCCCCCCOC(C)=O` , if possible.
Resp: No

Req: Next compound: `c1coc(CNc2ncnc3nc[nH]c23)c1`
Resp: No

Req: Also need C=C(C)C(=O)OCCC(C)OC(=O)C(=C)C (configuration not stated) , thanks.
Resp: No

Req: Now try `COc1ccccc1NC(=O)CC(C)=O` .
Resp: Yes

Req: What about this compound? `Cc1cc(N)n(-c2ccccc2)n1`
Resp: No

---

experiment: ATG_MRE_CIS: Attagene CIS-FACTORIAL HepG2 Assay for human Metal Responsive Element (MRE) (AID 2282954); conditions: HepG2 MRE cis-reporter transcription, Attagene multiplex; actives raise or lower the signal
Activity calls are given as the source filed them. Rule for the calls: active = hit-call score of the fitted dose curve at least 0.9, where 1 is the maximum; inactive = score below 0.9.
Permitted responses: 1 (yes) = active, 0 (no) = inactive

CC1=CC[C@@H](C(C)(C)O)CC1
0 (no)
CC/C(=C(\c1ccccc1)c1ccc(OCCN(C)C)cc1)c1ccccc1
0 (no)
c1ccc2c(c1)-c1ccc3ccc4cccc5cc-2c1c3c45
0 (no)
O=C1CCC(=O)N1
0 (no)
CCCCC(CC)COCCO (stereo not given)
0 (no)
CCCCCCOc1ccc(O)cc1
1 (yes)
C=C(C)C(=O)OCCC(C)OC(=O)C(=C)C (stereo not given)
0 (no)
CCCCN(CCO)CCO
0 (no)

Req: Any idea what this test logged for `Nc1cc([N+](=O)[O-])ccc1C(=O)O` ?
Resp: 1 (yes)

Req: Now consider `CC(C)COC(=O)c1ccccc1` .
Resp: 0 (no)

---

test: ATG_XTT_Cytotoxicity: Cytotoxicity Assessment in the Attagene TRANS-FACTORIAL HepG2 Assay (AID 2283584)
Records with an inconclusive call do not appear. Activity calls are given as the source filed them. How the source made its calls: active means hit-call score of the fitted dose curve at least 0.9, where 1 is the maximum; inconclusive means response in the unintended direction; inactive means score below 0.9.
Hello, when you answer, please use one of the following outcomes: 1 for active, -1 for inactive

O=C1CCCCCCCCCCCC(=O)OCCO1
-1
C=CCCCCCCCCC(=O)OCC
-1
CC/C=C\CCCCO
-1
CCCC1CCC(=O)CC1
-1
CC(=O)OCC=C(C)CCC=C(C)CCC=C(C)C
-1
CN(C)CCC=C1c2ccccc2CCc2ccccc21
1
CC(=O)OC/C=C(C)/C=C/C=C(C)/C=C/C1=C(C)CCCC1(C)C
-1
O=c1cc(-c2ccc(O)cc2)oc2cc(O)cc(O)c12
-1

Kindly review the next molecule as well.
Req: Field: outcome | Entry: `CCCCCCCCCCCCOCCOS(=O)(=O)O`
Resp: 1

---

test: CEETOX_H295R_CORTIC: CeeTox H295R High-throughput Steroidogenesis Assay for Corticosterone (CORTIC) (AID 2283437); conditions: actives raise or lower the signal;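 also: corticosterone secreted into medium quantified by mass spectrometry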
Active and inactive are the calls of the source. How the source made its calls: active means hit-call score of the fitted dose curve at least 0.9, where 1 is the maximum; inactive means score below 0.9.
Pick from y (active), n (inactive) when you respond.

CC(=N[Si](C)(C)C)O[Si](C)(C)C
n
O=c1cc(-c2ccc(O)cc2)oc2cc(O)cc(O)c12
n
O=C(c1ccc(OCCN2CCCCC2)cc1)c1c(-c2ccc(O)cc2)sc2cc(O)ccc12
n
CCCCCCCCCCCCN1CCOCC1
n
CCCCCC(=O)O[C@]1(C(C)=O)CC[C@H]2[C@@H]3CCC4=CC(=O)CC[C@]4(C)[C@H]3CC[C@@]21C
n
C#C[C@]1(O)CC[C@H]2[C@@H]3CCc4cc(O)ccc4[C@H]3CC[C@@]21C
y

Req: Any idea what this test logged for `CC(C)(C)c1cccc(O)c1` ?
Resp: n

Req: Try this compound too: `OCCCO`
Resp: n

Req: Item: `c1coc(CNc2ncnc3nc[nH]c23)c1`
Resp: n

Req: Let us now turn to `CC/C(=C(\c1ccccc1)c1ccc(OCCN(C)C)cc1)c1ccccc1`
Resp: n

Req: Okay, and `c1ccc(OCCOc2ccccc2)cc1` ?
Resp: n

Req: And `CCCc1ccc(O)cc1` ?
Resp: y

Req: Same again, this time with `O=C(OCc1ccccc1)c1ccccc1O`
Resp: n

---

test: BSK_3C_Vis: BioMAP Diversity Plus: 3C Assay for Morphology Visualization (AID 2283025); conditions: primary human endothelial cells (HUVEC);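 also: fitted both ways so gain or loss versus DMSO counts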
Calls of active or inactive are those of the source. The calls were made as follows: active = hit-call score of the fitted dose curve at least 0.9, where 1 is the maximum; inactive = score below 0.9.
// classify into YES for active, NO for inactive

Consider the following illustrative entries.
CCCCOCCOCCO
NO
OCCN1CCOCC1
NO
CC(C)Cc1ccc(C(C)C(=O)O)cc1 (stereo not given)
NO

Req: Recorded test outcome, item `c1ccc(Sc2ccccc2)cc1`
Resp: YES

Req: Record: `CC1(C)[C@H](C=C(Cl)Cl)[C@H]1C(=O)OCc1cccc(Oc2ccccc2)c1`
Resp: NO
